test: Stability of the base moiety in an aqueous environment; conditions: pH 6
readout-name: half-life

The molecule listed as Nc1ncn([C@H]2C[C@H](O)[C@@H](CO)O2)c(=O)n1 [DAC, decitabine, reference compound] has a reported half-life of ~20 h

The molecule listed as CC[Si](CC)(CC)OC[C@H]1O[C@@H](n2cnc(N)nc2=O)C[C@@H]1O has a reported half-life of 20 h

Source of measurements: paper PMC9398096
